Assayed System: VLA-4 (a4b1) (Homo sapiens (Human), UniProt P05556+P13612)
Sequence (P13612 34-1032): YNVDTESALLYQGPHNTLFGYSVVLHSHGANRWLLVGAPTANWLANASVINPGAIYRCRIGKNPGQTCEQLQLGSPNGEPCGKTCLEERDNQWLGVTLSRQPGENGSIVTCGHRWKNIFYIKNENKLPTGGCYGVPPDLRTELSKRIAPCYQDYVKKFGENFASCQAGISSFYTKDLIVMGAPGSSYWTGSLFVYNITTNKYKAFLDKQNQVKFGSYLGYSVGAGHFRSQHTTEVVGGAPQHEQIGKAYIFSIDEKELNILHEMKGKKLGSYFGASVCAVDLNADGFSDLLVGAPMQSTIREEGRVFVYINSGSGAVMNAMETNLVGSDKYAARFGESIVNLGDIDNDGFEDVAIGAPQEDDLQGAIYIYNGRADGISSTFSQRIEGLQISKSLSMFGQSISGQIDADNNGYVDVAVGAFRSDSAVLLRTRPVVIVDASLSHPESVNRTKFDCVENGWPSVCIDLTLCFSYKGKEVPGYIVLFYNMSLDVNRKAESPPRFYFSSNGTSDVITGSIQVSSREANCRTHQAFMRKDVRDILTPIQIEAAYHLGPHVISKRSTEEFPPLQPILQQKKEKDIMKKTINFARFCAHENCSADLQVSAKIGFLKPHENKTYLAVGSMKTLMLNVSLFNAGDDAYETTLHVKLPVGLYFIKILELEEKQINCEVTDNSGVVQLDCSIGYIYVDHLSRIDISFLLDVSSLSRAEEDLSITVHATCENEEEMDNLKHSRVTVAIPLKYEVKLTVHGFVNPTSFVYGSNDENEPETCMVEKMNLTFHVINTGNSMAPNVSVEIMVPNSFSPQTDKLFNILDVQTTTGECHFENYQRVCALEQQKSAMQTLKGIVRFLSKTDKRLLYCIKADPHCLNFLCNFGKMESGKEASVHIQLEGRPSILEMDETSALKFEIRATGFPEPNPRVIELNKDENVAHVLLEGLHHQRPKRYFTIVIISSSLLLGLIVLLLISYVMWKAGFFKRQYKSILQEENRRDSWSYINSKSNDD
Sequence (P05556 21-798): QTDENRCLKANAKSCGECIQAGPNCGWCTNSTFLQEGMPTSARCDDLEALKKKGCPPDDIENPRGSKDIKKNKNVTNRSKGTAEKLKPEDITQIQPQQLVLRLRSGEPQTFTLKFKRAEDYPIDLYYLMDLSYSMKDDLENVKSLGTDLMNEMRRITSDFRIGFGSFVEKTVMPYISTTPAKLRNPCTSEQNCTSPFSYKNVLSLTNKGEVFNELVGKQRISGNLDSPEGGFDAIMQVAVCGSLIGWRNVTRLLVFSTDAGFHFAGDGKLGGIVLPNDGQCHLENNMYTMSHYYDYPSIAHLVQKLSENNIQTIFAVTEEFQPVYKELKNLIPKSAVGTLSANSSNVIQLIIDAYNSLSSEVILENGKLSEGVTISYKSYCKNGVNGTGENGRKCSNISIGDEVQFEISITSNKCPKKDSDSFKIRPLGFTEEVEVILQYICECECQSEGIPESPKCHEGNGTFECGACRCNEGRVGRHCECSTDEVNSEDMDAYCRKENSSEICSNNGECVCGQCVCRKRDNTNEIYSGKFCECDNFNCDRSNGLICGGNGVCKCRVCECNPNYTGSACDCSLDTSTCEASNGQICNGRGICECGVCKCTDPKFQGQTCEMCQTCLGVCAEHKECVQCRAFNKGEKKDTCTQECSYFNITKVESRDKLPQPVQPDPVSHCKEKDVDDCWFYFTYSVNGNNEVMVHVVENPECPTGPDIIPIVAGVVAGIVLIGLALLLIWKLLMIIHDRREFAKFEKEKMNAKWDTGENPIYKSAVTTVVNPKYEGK
Method Summary: sVCAM flow cytometry cell-based assay (inhibition of soluble VCAM-1 binding to G2 ALL cells)
Condition Info: as listed in TABLE 17; read-out: sVCAM IC50
Here the recorded IC50 is given for each entry.

Past entries and their recorded results:
smiles_input=COCCOCCOCCOCc1cc(OC)c(-c2ccc(C[C@H](NC(=O)c3c(Cl)cc(C(=O)O)cc3Cl)C(=O)O)cc2)c(OC)c1 measure=IC50 reported_result="1.69 nM"
smiles_input=COCCOCCOCCOCCOCCOCCOCCOCCOCCOCCOCCOCCOCCOCCOCCOCCOCCOCCOCCOCCOCCOCCOCCOCCOCc1cc(OC)c(-c2ccc(C[C@H](NC(=O)[C@@H]3CCCN3S(=O)(=O)c3cc(Cl)cc(Cl)c3)C(=O)O)cc2)c(OC)c1 measure=IC50 reported_result="0.373 nM"
smiles_input=COCCOCCOCCOCCOCCOCCOCCOCCOCc1cc(OC)c(-c2ccc(C[C@H](NC(=O)[C@@H]3CCCN3S(=O)(=O)c3cc(Cl)cc(Cl)c3)C(=O)O)cc2)c(OC)c1 measure=IC50 reported_result="0.573 nM"

From here, focus on the item given below.
In: Hello, I am looking for reported IC50 with VLA-4 (a4b1) (Homo sapiens (Human), UniProt P05556+P13612) for COCCOCCOCCOCCOCCOCCOCCOCCOCCOCCOCCOCCOCCOCCOCCOCCOCCOCCOCCOCCOCCOCCOCCOCCOCc1cc(OC)c(-c2ccc(C[C@H](NC(=O)c3c(Cl)cc(C(=O)O)cc3Cl)C(=O)O)cc2)c(OC)c1 . Could you help?
Out: 1.49 nM

* * *

Assayed System: VLA-4 (a4b1) (Homo sapiens (Human), UniProt P05556+P13612)
Method Summary: sVCAM flow cytometry cell-based assay (inhibition of soluble VCAM-1 binding to G2 ALL cells)
Condition Info: inhibition of sVCAM-1 binding to human G2 ALL cells (TABLE 3); read-out: SVCAM-1; IC50
Measure: IC50 (nM)
Provide only the numeric value, understood in nM.

Solved cases below.
compound="COc1cc(CO)cc(OC)c1-c1ccc(C[C@H](NC(=O)c2c(Cl)cc(C(=O)O)cc2Cl)C(=O)O)cc1 [Example C2]" endpoint_unit=nM reported_result=3.83
compound="CCOCc1cc(OC)c(-c2ccc(C[C@H](NC(=O)c3c(Cl)cc(C(=O)O)cc3Cl)C(=O)O)cc2)c(OC)c1 [Example C3]" endpoint_unit=nM reported_result=1.35
compound="CCOCc1cc(OC)c(-c2ccc(C[C@H](NC(=O)[C@@H]3CCCN3S(=O)(=O)c3cc(Cl)cc(Cl)c3)C(=O)O)cc2)c(OC)c1 [Example C6]" endpoint_unit=nM reported_result=0.445
compound="COCCOCCOCCOCCOCCOCCOCCOCCOCCOCCOCCOCCOCCOCCOCCOCCOCc1cc(OC)c(-c2ccc(C[C@H](NC(=O)[C@@H]3CCCN3S(=O)(=O)c3cc(Cl)cc(Cl)c3)C(=O)O)cc2)c(OC)c1 [Example C14]" endpoint_unit=nM reported_result=0.702
compound="COCCOCCOCCOCCOCCOCCOCCOCCOCCOCCOCCOCCOCCOCCOCCOCCOCCOCCOCCOCCOCCOCCOCCOCCOCCOCCOCCOCCOCCOCCOCCOCCOCCOCCOCCOCCn1cc(COCc2cc(OC)c(-c3ccc(C[C@H](NC(=O)[C@@H]4CCCN4S(=O)(=O)c4cc(Cl)cc(Cl)c4)C(=O)O)cc3)c(OC)c2)nn1 [Example C10]" endpoint_unit=nM reported_result=0.552

In: Form field: reported IC50 of COCCOCCOCCOCCOCCOCCOCCOCCOCCOCCOCCOCCOCCOCCOCCOCCOCCOCCOCCOCCOCCOCCOCCOCCn1cc(COCc2cc(OC)c(-c3ccc(C[C@H](NC(=O)[C@@H]4CCCN4S(=O)(=O)c4cc(Cl)cc(Cl)c4)C(=O)O)cc3)c(OC)c2)nn1 [Example C9]
Out: 0.579

In: Value lookup for IC50; key = CN(C)c1ccc2c(c1)c(=O)n(-c1ccc(C[C@H](NC(=O)c3c(Cl)cccc3Cl)C(=O)O)cc1)c(=O)n2C [Carotegrast]
Out: 118

In: Can you look up the measured IC50 of COCCOCCOCCOCCOCCOCCOCCOCCOCCOCCOCCOCCOCCOCCOCCOCCOCCOCCOCCOCCOCCOCCOCCOCCSCc1cc(OC)c(-c2ccc(C[C@H](NC(=O)[C@@H]3CCCN3S(=O)(=O)c3cc(Cl)cc(Cl)c3)C(=O)O)cc2)c(OC)c1 [Example 7] for me?
Out: 1.36

In: So what does the record say about IC50 for COCCOCCOCCOCc1cc(OC)c(-c2ccc(C[C@H](NC(=O)c3c(Cl)cc(C(=O)O)cc3Cl)C(=O)O)cc2)c(OC)c1 [Example C4] ?
Out: 1.69

In: Request the reported IC50 associated with COCCOCCOCCOCCOCCOCCOCCOCCSCc1cc(OC)c(-c2ccc(C[C@H](NC(=O)[C@@H]3CCCN3S(=O)(=O)c3cc(Cl)cc(Cl)c3)C(=O)O)cc2)c(OC)c1 [Example C16]
Out: 0.155

In: So what's the measured IC50 for this one? COCCOCCOCCOCCOCCOCCOCCOCCOCc1cc(OC)c(-c2ccc(C[C@H](NC(=O)[C@@H]3CCCN3S(=O)(=O)c3cc(Cl)cc(Cl)c3)C(=O)O)cc2)c(OC)c1 [Example C12]
Out: 0.573

* * *

Reported values of IC50 for individual entries
Assayed System: VLA-4 (a4b1) (Homo sapiens (Human), UniProt P05556+P13612)
Method Summary: sVCAM flow cytometry cell-based assay (inhibition of soluble VCAM-1 binding to G2 ALL cells);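 further: compounds at 0.1 to 1000 nM preincubated 30 min with G2 ALL cells, then VCAM/Fc added for 30 min, bound VCAM-1 detected by PE secondary antibody, percent binding cells by flow cytometry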
Condition Info: as listed in TABLE 10; read-out: sVCAM IC50
Just the number in nM, nothing appended.

molecule="COCCOCCOCCOCCOCCOCCOCCOCCOCCOCCOCCOCCOCCOCCOCCOCCOCc1cc(OC)c(-c2ccc(C[C@H](NC(=O)[C@@H]3CCCN3S(=O)(=O)c3cc(Cl)cc(Cl)c3)C(=O)O)cc2)c(OC)c1 [Example C14]" assayed_system="VLA-4 (a4b1) (Homo sapiens (Human), UniProt P05556+P13612)" measure=IC50 endpoint_unit=nM reported_result=0.702
molecule="COCCOCCOCCOCCOCCOCCOCCOCCOCCOCCOCCOCCOCCOCCOCCOCCOCCOCCOCCOCCOCCOCCOCCOCCOCc1cc(OC)c(-c2ccc(C[C@H](NC(=O)[C@@H]3CCCN3S(=O)(=O)c3cc(Cl)cc(Cl)c3)C(=O)O)cc2)c(OC)c1 [Example 1]" assayed_system="VLA-4 (a4b1) (Homo sapiens (Human), UniProt P05556+P13612)" measure=IC50 endpoint_unit=nM reported_result=0.373
molecule="COCCOCCOCCOCCOCCOCCOCCOCCOCCOCCOCCOCCOCCOCCOCCOCCOCCOCCOCCOCCOCCOCCOCCOCCOCCOCCOCCOCCOCCOCCOCCOCCOCCOCCOCCOCCOCc1cc(OC)c(-c2ccc(C[C@H](NC(=O)[C@@H]3CCCN3S(=O)(=O)c3cc(Cl)cc(Cl)c3)C(=O)O)cc2)c(OC)c1 [Example 2]" assayed_system="VLA-4 (a4b1) (Homo sapiens (Human), UniProt P05556+P13612)" measure=IC50 endpoint_unit=nM reported_result=0.833

In: I am curious: what IC50 value has been reported for COCCOCCOCCOCCOCCOCCOCCOCCOCCOCCOCCOCCOCCOCCOCCOCCOCCOCCOCCOCCOCCOCCOCCOCCOCc1cc(OC)c(-c2ccc(C[C@H](NC(=O)c3c(Cl)cc(C(=O)O)cc3Cl)C(=O)O)cc2)c(OC)c1 [Example C17] ?
Out: 1.49

* * *

# reported No. CFU (×10^3)/mL ± SD, 6 hr; entries follow
Tested on: hematopoietic stem/progenitor cells (HSPCs)
Method Summary: HSPC mobilization into peripheral blood, colony forming unit (CFU) assay; further: test concentration or dose not given here
Condition Info: mice, single dose, peripheral blood, 6 hr post dose (TABLE 9)

Completed entries (count: 5):
smiles_input=COCCOCCOCCOCCOCCOCCOCCOCCOCCOCCOCCOCCOCCOCCOCCOCCOCc1cc(OC)c(-c2ccc(C[C@H](NC(=O)[C@@H]3CCCN3S(=O)(=O)c3cc(Cl)cc(Cl)c3)C(=O)O)cc2)c(OC)c1 reported_result="0.08 ± 0.11 (×10^3)/mL"
smiles_input=COCCOCCOCCOCc1cc(OC)c(-c2ccc(C[C@H](NC(=O)[C@@H]3CCCN3S(=O)(=O)c3cc(Cl)cc(Cl)c3)C(=O)O)cc2)c(OC)c1 reported_result="0.11 ± 0.08 (×10^3)/mL"
smiles_input=COCCOCCOCCOCCOCCOCCOCCOCCOCCOCCOCCOCCOCc1cc(OC)c(-c2ccc(C[C@H](NC(=O)[C@@H]3CCCN3S(=O)(=O)c3cc(Cl)cc(Cl)c3)C(=O)O)cc2)c(OC)c1 reported_result="0.10 ± 0.04 (×10^3)/mL"
smiles_input=COCCOCCOCCOCCOCCOCCOCCOCCOCCOCCOCCOCCOCCOCCOCCOCCOCCOCCOCCOCCOCCOCCOCCOCCOCc1cc(OC)c(-c2ccc(C[C@H](NC(=O)[C@@H]3CCCN3S(=O)(=O)c3cc(Cl)cc(Cl)c3)C(=O)O)cc2)c(OC)c1 reported_result="1.84 ± 0.63 (×10^3)/mL"
smiles_input=COCCOCCOCCOCCOCCOCCOCCOCCOCCOCCOCCOCCOCCOCCOCCOCCOCCOCCOCCOCCOCCOCCOCCOCCOCCOCCOCCOCCOCCOCCOCCOCCOCCOCCOCCOCCOCc1cc(OC)c(-c2ccc(C[C@H](NC(=O)[C@@H]3CCCN3S(=O)(=O)c3cc(Cl)cc(Cl)c3)C(=O)O)cc2)c(OC)c1 reported_result="1.87 ± 0.58 (×10^3)/mL"

Please look at the following molecule next.
In: Param item = COCCOCCOCCOCCOCCOCCOCCOCCOCc1cc(OC)c(-c2ccc(C[C@H](NC(=O)[C@@H]3CCCN3S(=O)(=O)c3cc(Cl)cc(Cl)c3)C(=O)O)cc2)c(OC)c1 ; retrieve measured No. CFU (×10^3)/mL ± SD, 6 hr.
Out: 0.24 ± 0.15 (×10^3)/mL

Values were extracted from patent US20250381168A1.
